# targetDesc: Cytochrome P450 3A4 (Homo sapiens, UniProt P08684)
# Sequence (P08684 whole entry): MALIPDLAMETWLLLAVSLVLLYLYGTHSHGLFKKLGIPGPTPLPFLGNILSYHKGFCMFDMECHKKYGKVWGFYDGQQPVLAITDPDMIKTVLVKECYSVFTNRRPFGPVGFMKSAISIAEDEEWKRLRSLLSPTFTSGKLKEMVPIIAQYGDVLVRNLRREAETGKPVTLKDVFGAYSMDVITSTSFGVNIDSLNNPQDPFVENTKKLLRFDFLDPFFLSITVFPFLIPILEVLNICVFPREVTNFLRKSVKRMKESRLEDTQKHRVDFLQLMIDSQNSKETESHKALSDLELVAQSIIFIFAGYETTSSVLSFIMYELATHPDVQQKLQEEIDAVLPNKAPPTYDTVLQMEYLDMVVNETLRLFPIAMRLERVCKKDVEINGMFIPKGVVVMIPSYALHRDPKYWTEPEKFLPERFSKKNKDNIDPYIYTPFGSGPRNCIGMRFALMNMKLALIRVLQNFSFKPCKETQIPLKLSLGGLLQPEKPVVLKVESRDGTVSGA
# measurementDescription: Inhibition of CYP3A4 in presence of BQ substrate
# Format: ADME
readoutType: pIC50
The quantity pIC50 is defined as the negative base-10 logarithm of the molar concentration.

molecule | targetDesc | experimentalValue
NCC1CCC(CNc2nc(NCc3ccccc3Cl)ncc2[N+](=O)[O-])CC1 (centres undefined) | Cytochrome P450 3A4 (Homo sapiens, UniProt P08684) | 5.85

Consider now this further molecule.
Entry CN(C)CC1CCC(CNc2nc(NCc3ccccc3Cl)ncc2[N+](=O)[O-])CC1 (centres undefined) , tested on Cytochrome P450 3A4 (Homo sapiens, UniProt P08684), has a reported pIC50 of 4.89

====

pIC50 reference
# targetDesc: Cytochrome P450 3A4 (Homo sapiens, UniProt P08684)
# measurementDescription: Inhibition of CYP3A4 in presence of BFC substrate
# Format: ADME
The quantity pIC50 is defined as the negative base-10 logarithm of the molar concentration.

molecule | pIC50
O=[N+]([O-])c1cnc(NCc2ccccc2Cl)nc1NCC1CCNCC1 | 4.55
CSc1ccccc1CNc1ncc([N+](=O)[O-])c(NCC2CCC(CN)CC2)n1 (centres undefined) | 5.16
CN(C)CC1CCC(CNc2nc(NCc3ccccc3Cl)ncc2[N+](=O)[O-])CC1 (centres undefined) | 5.77

Consider now this further molecule.
pIC50 reported for this molecule NCC1CCC(CNc2nc(NCc3ccccc3Cl)ncc2[N+](=O)[O-])CC1 (centres undefined) : 6.15

====

# measurementDescription: Stability in human liver microsomes
# Assay type: ADME, Microsome
readoutType: half-life (min)
The reply should contain only the number, in min.

Examples with their reported half-life follow.
compound | readingUnit | experimentalValue
O=[N+]([O-])c1cnc(NCc2ccccc2Cl)nc1NCC1CCNCC1 | min | 66
CSc1ccccc1CNc1ncc([N+](=O)[O-])c(NCC2CCC(CN)CC2)n1 (centres undefined) | min | 65

half-life reported for this compound CN(C)CC1CCC(CNc2nc(NCc3ccccc3Cl)ncc2[N+](=O)[O-])CC1 (centres undefined) : 40

half-life reported for this compound NCC1CCC(CNc2nc(NCc3ccccc3Cl)ncc2[N+](=O)[O-])CC1 (centres undefined) : 48

====

// Cytochrome P450 2D6 (Homo sapiens, UniProt P10635) IC50 records
The reply should contain only the number, in µM.

compound | IC50, µM
NCC1CCC(CNc2nc(NCc3ccccc3Cl)ncc2[N+](=O)[O-])CC1 (configuration not stated) | 4.3

Consider now this further compound.
Entry CSc1ccccc1CNc1ncc([N+](=O)[O-])c(NCC2CCC(CN)CC2)n1 (configuration not stated) , tested on Cytochrome P450 2D6 (Homo sapiens, UniProt P10635), has a reported IC50 of 4.7

====

IC50 reference
# targetDesc: Protein kinase C theta type (Homo sapiens, UniProt Q04759)
# Sequence (Q04759 whole entry): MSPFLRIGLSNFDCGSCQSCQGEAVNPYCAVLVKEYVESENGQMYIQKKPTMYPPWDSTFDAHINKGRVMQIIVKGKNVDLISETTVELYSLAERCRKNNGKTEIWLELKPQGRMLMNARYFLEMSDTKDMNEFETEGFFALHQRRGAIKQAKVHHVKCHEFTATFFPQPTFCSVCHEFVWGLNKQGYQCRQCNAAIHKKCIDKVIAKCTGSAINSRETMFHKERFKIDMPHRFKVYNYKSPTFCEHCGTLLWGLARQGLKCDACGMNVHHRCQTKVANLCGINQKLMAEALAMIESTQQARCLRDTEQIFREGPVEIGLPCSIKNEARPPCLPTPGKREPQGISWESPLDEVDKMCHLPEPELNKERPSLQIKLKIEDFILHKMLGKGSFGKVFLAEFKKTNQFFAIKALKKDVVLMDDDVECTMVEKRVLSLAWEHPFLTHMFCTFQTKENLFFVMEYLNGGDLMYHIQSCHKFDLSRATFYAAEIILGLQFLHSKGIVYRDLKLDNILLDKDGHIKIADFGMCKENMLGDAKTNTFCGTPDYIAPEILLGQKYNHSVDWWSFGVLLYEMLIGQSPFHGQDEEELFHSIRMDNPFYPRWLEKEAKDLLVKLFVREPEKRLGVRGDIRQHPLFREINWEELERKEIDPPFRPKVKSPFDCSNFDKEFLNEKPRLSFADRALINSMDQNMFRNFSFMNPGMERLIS
# measurementDescription: Inhibition of PKCtheta by FP assay

Examples with their reported IC50 follow.
compound | targetDesc | IC50
NCC1CCC(CNc2nc(NCCc3cccc(F)c3)ncc2[N+](=O)[O-])CC1 (stereo not given) | Protein kinase C theta type (Homo sapiens, UniProt Q04759) | 54 nM
NC[C@H]1CC[C@H](CNc2nc(NCc3ccccc3Cl)ncc2[N+](=O)[O-])CC1 | Protein kinase C theta type (Homo sapiens, UniProt Q04759) | 29 nM
NC[C@H]1CC[C@@H](CNc2nc(NCc3ccccc3Cl)ncc2[N+](=O)[O-])CC1 | Protein kinase C theta type (Homo sapiens, UniProt Q04759) | 18 nM
NCC1CCC(CNc2nc(NCc3ccc(Cl)cc3Cl)ncc2[N+](=O)[O-])CC1 (stereo not given) | Protein kinase C theta type (Homo sapiens, UniProt Q04759) | 27 nM
NCC1CCC(CNc2nc(NCc3cccc(Cl)c3)ncc2[N+](=O)[O-])CC1 (stereo not given) | Protein kinase C theta type (Homo sapiens, UniProt Q04759) | 85 nM
NCc1cccc(CNc2nc(NCc3ccccc3Cl)ncc2[N+](=O)[O-])c1 | Protein kinase C theta type (Homo sapiens, UniProt Q04759) | 200 nM
NCCCCCCCNc1nc(NCc2ccccc2Cl)ncc1[N+](=O)[O-] | Protein kinase C theta type (Homo sapiens, UniProt Q04759) | 110 nM
NCC1CCC(CNc2nc(NCc3ccccc3[N+](=O)[O-])ncc2[N+](=O)[O-])CC1 (stereo not given) | Protein kinase C theta type (Homo sapiens, UniProt Q04759) | 11 nM

Entry C[C@H](Nc1ncc([N+](=O)[O-])c(NCC2CCC(CN)CC2)n1)c1ccccc1 (stereo not given in full) , tested on Protein kinase C theta type (Homo sapiens, UniProt Q04759), has a reported IC50 of 3700 nM

Entry NCC1CCC(CNc2nc(NC(=O)c3ccccc3Br)ncc2[N+](=O)[O-])CC1 (stereo not given) , tested on Protein kinase C theta type (Homo sapiens, UniProt Q04759), has a reported IC50 of 2200 nM

Entry NCC1CCC(CNc2nc(NCc3ccccc3)ncc2[N+](=O)[O-])CC1 (stereo not given) , tested on Protein kinase C theta type (Homo sapiens, UniProt Q04759), has a reported IC50 of 500 nM

Entry COc1cccc(CNc2ncc([N+](=O)[O-])c(NCC3CCC(CN)CC3)n2)c1 (stereo not given) , tested on Protein kinase C theta type (Homo sapiens, UniProt Q04759), has a reported IC50 of 210 nM

Entry NCC1CCC(CNc2nc(NCCCCc3ccccc3)ncc2[N+](=O)[O-])CC1 (stereo not given) , tested on Protein kinase C theta type (Homo sapiens, UniProt Q04759), has a reported IC50 of 90 nM

Entry Cc1ccc(C)c(CNc2ncc([N+](=O)[O-])c(NCC3CCC(CN)CC3)n2)c1 (stereo not given) , tested on Protein kinase C theta type (Homo sapiens, UniProt Q04759), has a reported IC50 of 910 nM

Entry NCC1CCC(CNc2nc(NCc3cc(F)ccc3F)ncc2[N+](=O)[O-])CC1 (stereo not given) , tested on Protein kinase C theta type (Homo sapiens, UniProt Q04759), has a reported IC50 of 35 nM

Entry NCC1CCC(CNc2nc(NCc3cccc(Cl)c3Cl)ncc2[N+](=O)[O-])CC1 (stereo not given) , tested on Protein kinase C theta type (Homo sapiens, UniProt Q04759), has a reported IC50 of 8 nM

Entry NCC1CCC(CNc2nc(NCc3ccccc3Br)ncc2[N+](=O)[O-])CC1 (stereo not given) , tested on Protein kinase C theta type (Homo sapiens, UniProt Q04759), has a reported IC50 of 5 nM

Entry "O=[N+]([O-])c1cnc(NCc2ccccc2Cl)nc1NCC1CCNCC1" , tested on Protein kinase C theta type (Homo sapiens, UniProt Q04759), has a reported IC50 of 90 nM

Entry NCC1CCC(CNc2nc(NC3Cc4ccccc4C3)ncc2[N+](=O)[O-])CC1 (stereo not given) , tested on Protein kinase C theta type (Homo sapiens, UniProt Q04759), has a reported IC50 of 31 nM

Entry "NCCCNc1nc(NCc2ccccc2Cl)ncc1[N+](=O)[O-]" , tested on Protein kinase C theta type (Homo sapiens, UniProt Q04759), has a reported IC50 of > 10000 nM

Hey, just so you know, these numbers are from ChEMBL document CHEMBL1138386.
